Where these numbers come from: ChEMBL document CHEMBL4476874

# target_system: UniProtKB P01106
# assay_method_text: Inhibition of human c-Myc assessed as reduction in c-Myc/Max/Ebox DNA complex formation using pre-formed complex of c-Myc and biotinylated DNA containing single Ebox-sequence followed by compound addition and further addition of his6-tagged c-Max and incubated for 2 hrs by AlphaScreen assay
pIC50: −log10 of the molar value.
In this section, each of the compounds is paired with its reported pIC50.

{"columns": ["compound", "measurement_label", "reported_result"],
 "data": [
  ["COCCNCCC(=O)Nc1sc2c(c1-c1nc3ccc(-c4ccc(N5CCN(C)CC5)cc4)cc3s1)CCNC2", "pIC50", "> 6.52"],
  ["O=C(CCNC1C2CC1C2)Nc1sc2c(c1-c1nc3ccccc3s1)CCNC2 (centres undefined)", "pIC50", "5.00 to 6.00"],
  ["COCCNCCC(=O)Nc1sc2c(c1-c1nc3c(N4CCOCC4)cccc3s1)CCNC2", "pIC50", "< 5.00"],
  ["COCCNCCC(=O)Nc1sc2c(c1-c1nc3ccc(-c4ccc(OC)nc4)cc3s1)CCNC2", "pIC50", "5.00 to 6.00"],
  ["CCOc1ncccc1-c1ccc2nc(-c3c(NC(=O)CCNCCOC)sc4c3CCNC4)sc2c1", "pIC50", "< 5.00"]
]}

Recall and state the measured pIC50 for CC(C)NCCC(=O)Nc1sc2c(c1-c1nc3ccccc3o1)CCNC2 . 6.00 to 6.52

Provide only the value of recorded pIC50 for COCCNCCC(=O)Nc1sc2c(c1-c1nc3ccc(-c4cccc(C#N)c4)cc3s1)CCNC2 5.00 to 6.00

Return pIC50 for the following compound: CCC(C)N(CCC(=O)Nc1sc2c(c1-c1nc3ccccc3s1)CCNC2)C(C)=O (centres undefined) 5.00 to 6.00

Tell us which pIC50 value is on record for CC(=O)Nc1ccc(-c2ccc3sc(-c4c(NC(=O)CCNC(C)C)sc5c4CCNC5)nc3c2)cc1 6.00 to 6.52

---

# target_system: Myc proto-oncogene protein (Homo sapiens, UniProt P01106)
# Sequence (P01106 whole entry): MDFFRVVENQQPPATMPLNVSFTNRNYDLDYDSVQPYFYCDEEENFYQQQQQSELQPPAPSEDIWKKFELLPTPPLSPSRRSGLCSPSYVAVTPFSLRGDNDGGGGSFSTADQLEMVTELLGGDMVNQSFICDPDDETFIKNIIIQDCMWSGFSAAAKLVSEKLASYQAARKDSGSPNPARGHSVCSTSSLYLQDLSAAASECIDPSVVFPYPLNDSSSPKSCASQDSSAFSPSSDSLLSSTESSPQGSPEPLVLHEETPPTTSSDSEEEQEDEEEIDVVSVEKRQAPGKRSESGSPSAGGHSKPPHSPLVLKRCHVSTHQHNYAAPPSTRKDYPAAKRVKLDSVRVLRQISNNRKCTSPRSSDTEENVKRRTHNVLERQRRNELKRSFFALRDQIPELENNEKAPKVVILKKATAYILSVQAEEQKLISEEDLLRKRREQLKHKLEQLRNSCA
# assay_method_text: Inhibition of human c-Myc assessed as reduction in c-Myc/Max/Ebox DNA complex formation using pre-formed complex of c-Myc and biotinylated DNA containing single Ebox-sequence followed by compound addition and further addition of his6-tagged c-Max and incubated for 2 hrs by AlphaScreen assay
pIC50: −log10 of the molar value.
measurement_label: pIC50

{"columns": ["compound", "target_system", "pIC50"],
 "data": [
  ["CC(C)NCCC(=O)Nc1sc2c(c1-c1nc3ccccc3s1)CC1CCC2N1 (centres undefined)", "Myc proto-oncogene protein (Homo sapiens, UniProt P01106)", "5.00 to 6.00"],
  ["COCCNCCC(=O)Nc1sc2c(c1-c1nc3ccc(-c4cncc(C#N)c4)cc3s1)CCNC2", "Myc proto-oncogene protein (Homo sapiens, UniProt P01106)", "5.00 to 6.00"],
  ["O=C(C[C@H]1CCCN1)Nc1sc2c(c1-c1nc3ccccc3s1)CCNC2", "Myc proto-oncogene protein (Homo sapiens, UniProt P01106)", "6.00 to 6.52"],
  ["COCCNCCC(=O)Nc1sc2c(c1-c1nc3cc(-c4cccc(NS(C)(=O)=O)c4)ccc3s1)CCNC2", "Myc proto-oncogene protein (Homo sapiens, UniProt P01106)", "5.00 to 6.00"]
]}

Please give the documented pIC50 of COCCNCCC(=O)Nc1sc2c(c1-c1nc3ccc(-c4ccc(C(=O)N(C)C)cc4F)cc3s1)CCNC2 6.00 to 6.52

---

# target_system: Myc proto-oncogene protein (Homo sapiens, UniProt P01106)
# assay_method_text: Inhibition of human c-Myc assessed as reduction in c-Myc/Max/Ebox DNA complex formation using pre-formed complex of c-Myc and biotinylated DNA containing single Ebox-sequence followed by compound addition and further addition of his6-tagged c-Max and incubated for 2 hrs by AlphaScreen assay
// reported IC50 for each item listed

Answer with the recorded IC50 for the molecule listed here: CC(C)NCCC(=O)Nc1sc2c(c1-c1nc3cc(Sc4ccccc4)ccc3s1)CCNC2 > 10000 nM

---

// reported IC50 for each item listed
# target_system: Myc proto-oncogene protein (Homo sapiens)
# assay_method_text: Inhibition of human c-Myc assessed as reduction in c-Myc/Max/Ebox DNA complex formation using pre-formed complex of c-Myc and biotinylated DNA containing single Ebox-sequence followed by compound addition and further addition of his6-tagged c-Max and incubated for 2 hrs by AlphaScreen assay

{"columns": ["compound", "measurement_label", "reported_result"],
 "data": [
  ["COCCNCCC(=O)Nc1sc2c(c1-c1nc3ccc(-c4ccc(F)nc4)cc3s1)CCNC2", "IC50", "300 to 1000 nM"],
  ["COCCNCCC(=O)Nc1sc2c(c1-c1nc3c(Nc4ccccc4)cccc3s1)CCNC2", "IC50", "> 10000 nM"],
  ["COc1ccccc1-c1ccc2sc(-c3c(NC(=O)CCNC(C)C)sc4c3CCNC4)nc2c1", "IC50", "1000 to 10000 nM"],
  ["COCCNCCC(=O)Nc1sc2c(c1-c1nc3cc(-c4ccncc4Cl)ccc3s1)CCNC2", "IC50", "> 10000 nM"],
  ["COCCNCCC(=O)Nc1sc2c(c1-c1nc3cc(-c4ccc(OC)nc4)ccc3s1)CCNC2", "IC50", "1000 to 10000 nM"]
]}

Tell us which IC50 value is on record for COCCNCCC(=O)Nc1sc2c(c1-c1nc3cc(-c4cccc(C#N)c4)ccc3s1)CCNC2 300 to 1000 nM

State its IC50 for this compound: COCCNCCC(=O)Nc1sc2c(c1-c1nc3ccc(-c4ccc(C(F)(F)F)nc4)cc3s1)CCNC2 > 10000 nM

Return reported IC50. Input compound: COCCNCCC(=O)Nc1sc2c(c1-c1nc3ccc(-c4ccc5ncnn5c4)cc3s1)CCNC2 1000 to 10000 nM

# return recorded IC50 for entry Cc1noc(C)c1-c1ccc2sc(-c3c(NC(=O)CCNC(C)C)sc4c3CCNC4)nc2c1 1000 to 10000 nM

---

Listed here: items and their measured pIC50.
# target_system: Myc proto-oncogene protein (Homo sapiens)
# assay_method_text: Inhibition of human c-Myc assessed as reduction in c-Myc/Max/Ebox DNA complex formation using pre-formed complex of c-Myc and biotinylated DNA containing single Ebox-sequence followed by compound addition and further addition of his6-tagged c-Max and incubated for 2 hrs by AlphaScreen assay
pIC50: −log10 of the molar value.

A selection of reference data follows.
{"columns": ["molecule", "target_system", "pIC50"],
 "data": [
  ["CC(C)N1CCc2c(sc(NC(=O)CCNc3ccc(-c4nnn[nH]4)cc3)c2-c2nc3ccccc3s2)C1", "Myc proto-oncogene protein (Homo sapiens)", "< 5.00"],
  ["O=C(CC1CCCN1)Nc1sc2c(c1-c1nc3ccccc3s1)CCNC2 (configuration not stated)", "Myc proto-oncogene protein (Homo sapiens)", "6.00 to 6.52"],
  ["CC(C)NCCC(=O)Nc1sc2c(c1-c1nc3cc(C4CC4)ccc3s1)CCNC2", "Myc proto-oncogene protein (Homo sapiens)", "6.00 to 6.52"],
  ["COCCNCCC(=O)Nc1sc2c(c1-c1nc3cc(-c4cc(F)cnc4OC)ccc3s1)CCNC2", "Myc proto-oncogene protein (Homo sapiens)", "5.00 to 6.00"],
  ["COCCNCCC(=O)Nc1sc2c(c1-c1nc3ccc(-c4ccnc(NC(C)=O)c4)cc3s1)CCNC2", "Myc proto-oncogene protein (Homo sapiens)", "6.00 to 6.52"],
  ["COCCNCCC(=O)Nc1sc2c(c1-c1nc3cc(-c4ccnn4C)ccc3s1)CCNC2", "Myc proto-oncogene protein (Homo sapiens)", "6.00 to 6.52"]
]}

Read the entry COCCNCCC(=O)Nc1sc2c(c1-c1nc3cc(-c4ccc5cnn(C)c5c4)ccc3s1)CCNC2 and write its reported pIC50. 6.00 to 6.52

---

# target_system: Myc proto-oncogene protein (Homo sapiens, UniProt P01106)
# assay_method_text: Inhibition of human c-Myc assessed as reduction in c-Myc/Max/Ebox DNA complex formation using pre-formed complex of c-Myc and biotinylated DNA containing single Ebox-sequence followed by compound addition and further addition of his6-tagged c-Max and incubated for 2 hrs by AlphaScreen assay
pIC50: −log10 of the molar value.
measurement_label: pIC50

{"columns": ["compound", "pIC50"],
 "data": [
  ["COCCNCCC(=O)Nc1sc2c(c1-c1nc3ccc(-c4cncc(N)c4)cc3s1)CCNC2", "6.00 to 6.52"]
]}

Entry COCCNCCC(=O)Nc1sc2c(c1-c1nc3ccc(-c4ccc(C)c(C#N)c4)cc3s1)CCNC2 needs its pIC50 filled in; supply it. < 5.00

Retrieve pIC50 measured for COCCNCCC(=O)Nc1sc2c(c1-c1nc3ccc(-c4cncc(OCCOC)c4)cc3s1)CCNC2 and print it. < 5.00

Supply reported pIC50 belonging to this molecule: COCCNCCC(=O)Nc1sc2c(c1-c1nc3cc(-c4cnn(C)c4C)ccc3s1)CCNC2 6.00 to 6.52

Output pIC50 of COCCNCCC(=O)Nc1sc2c(c1-c1nc3c(N4CCCC4)cccc3s1)CCNC2 > 6.52

Supply pIC50 value. Item: CC(C)NCCC(=O)Nc1sc2c(c1-c1nc3cc(Sc4ccccn4)ccc3s1)CCNC2 5.00 to 6.00

Look up pIC50 of COCCNCCC(=O)Nc1sc2c(c1-c1nc3cc(-c4c(C)n[nH]c4C)ccc3s1)CCNC2 and report it. 5.00 to 6.00

Please report pIC50 for the following molecule: O=C(CCN1CCOCC1)Nc1sc2c(c1-c1nc3ccccc3s1)CCNC2 5.00 to 6.00

Output pIC50 of COCCNCCC(=O)Nc1sc2c(c1-c1nc3ccc(-c4ccc(C(=O)OC)nc4)cc3s1)CCNC2 5.00 to 6.00

Output measured pIC50 for this item: COCCNCCC(=O)Nc1sc2c(c1-c1nc3cc(-c4c(C)nn(C)c4C)ccc3s1)CCNC2 5.00 to 6.00

Entry COCCNCCC(=O)Nc1sc2c(c1-c1nc3c(C)cccc3o1)CCNC2 needs its pIC50 filled in; supply it. 6.00 to 6.52
